FYI, the data here is from patent US20200087408A1.

- target: cynomolgus IL-36R (on cells, allelic variant not stated) (cynomolgus monkey), A0A2K5
- Sequence (chain, as listed by the source mutant): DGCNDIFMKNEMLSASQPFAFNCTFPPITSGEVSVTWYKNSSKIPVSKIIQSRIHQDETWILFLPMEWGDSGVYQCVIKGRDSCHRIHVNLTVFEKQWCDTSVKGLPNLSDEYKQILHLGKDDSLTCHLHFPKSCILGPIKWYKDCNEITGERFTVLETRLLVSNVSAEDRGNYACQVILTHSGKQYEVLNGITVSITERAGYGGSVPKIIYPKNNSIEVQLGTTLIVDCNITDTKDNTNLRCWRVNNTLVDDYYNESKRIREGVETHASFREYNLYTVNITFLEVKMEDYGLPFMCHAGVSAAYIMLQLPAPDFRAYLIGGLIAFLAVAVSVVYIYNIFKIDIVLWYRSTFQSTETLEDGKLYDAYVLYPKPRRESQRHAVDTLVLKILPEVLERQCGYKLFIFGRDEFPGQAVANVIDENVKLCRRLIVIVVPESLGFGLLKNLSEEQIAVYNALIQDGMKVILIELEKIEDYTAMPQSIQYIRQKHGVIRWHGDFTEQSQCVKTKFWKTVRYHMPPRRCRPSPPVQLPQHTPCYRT
- experimentalProtocol: cell-based or functional assay
Below, each entry is listed with its recorded EC50 (nM), HEK cyno IL-36R IL-8 luciferase reporter assay, 300 ng/ml cIL-36γ.
outcomeMeasure: EC50 (nM), HEK cyno IL-36R IL-8 luciferase reporter assay, 300 ng/ml cIL-36γ

| binder | numericReadout |
| --- | --- |
| Hzd 5D3 (APE6194) (antibody, V domains shown, also called 5D3 Humanized) VH: QVQLVQSGAEVKKPGASVKVSCKASGYTFTNYWMNWVRQAPRQGLEWMGMFHPYGDVTRLNQKFKDRVTMTRDTSTSTVYMELSSLRSEDTAVYYCARTTSMIIGGFAYWGQGTLVTVSS VL: DIVMTQTPLSLSVTPGQPASISCRSSKSLLHRNAITYFYWYLHKPGQPPQLLIYQMSNLASGVPDRFSGSGSGTDFTLKISRVEAEDVGVYYCAQNLELPLTFGGGTKVEIK | 0.31 |
| Hzd 18D4 (APE7247) (antibody, V domains shown) VH: DVQFQESGPGLVKPSQTLSLTCTVTGYSITADFAWNWIRQPPGKGLEWIGYISYSGDTNYNPSLKSRVTITRDTSKNQFSLKLSSVTAADTAVYFCAIRGPYSFTYWGQGTLVTVSSA VL: DIQMTQSPSSLSASVGDRVTITCRASQWINNYLNWYQQKPGKAPKLLIYYTSMLHSGVPSRFSPSGSGNDYTFTISSLQPEDIATYYCQQGHTLPWTFGGGTKVEIKRT | 0.24 |
| Chimeric 18D4 (APE3847) (antibody, V domains shown) VH: DVQFQESGPGLVKPSQSLSLTCTVTGYSITSDFAWNWIRQFPGNKLEWMGYISYSGDTNYNPSLKSRISITRDTSKNQFFLQLNSVTTEDTATYFCAIRGPYSFTYWGPGTLVTVSS VL: DIQMTQTTSSLSASLGDRVTINCRASQDINNYLNWYQQKPDGTIRLLIYYTSRLHSGVPSRFSPNGSGTDYSLTINNLEQEDIATYFCQQGHTLPWTFGGGTKLEIK | 0.51 |
